Biological target: N1303K-CFTR (Homo sapiens, UniProt P13569, N1303K)
Sequence (P13569 whole entry N1303K): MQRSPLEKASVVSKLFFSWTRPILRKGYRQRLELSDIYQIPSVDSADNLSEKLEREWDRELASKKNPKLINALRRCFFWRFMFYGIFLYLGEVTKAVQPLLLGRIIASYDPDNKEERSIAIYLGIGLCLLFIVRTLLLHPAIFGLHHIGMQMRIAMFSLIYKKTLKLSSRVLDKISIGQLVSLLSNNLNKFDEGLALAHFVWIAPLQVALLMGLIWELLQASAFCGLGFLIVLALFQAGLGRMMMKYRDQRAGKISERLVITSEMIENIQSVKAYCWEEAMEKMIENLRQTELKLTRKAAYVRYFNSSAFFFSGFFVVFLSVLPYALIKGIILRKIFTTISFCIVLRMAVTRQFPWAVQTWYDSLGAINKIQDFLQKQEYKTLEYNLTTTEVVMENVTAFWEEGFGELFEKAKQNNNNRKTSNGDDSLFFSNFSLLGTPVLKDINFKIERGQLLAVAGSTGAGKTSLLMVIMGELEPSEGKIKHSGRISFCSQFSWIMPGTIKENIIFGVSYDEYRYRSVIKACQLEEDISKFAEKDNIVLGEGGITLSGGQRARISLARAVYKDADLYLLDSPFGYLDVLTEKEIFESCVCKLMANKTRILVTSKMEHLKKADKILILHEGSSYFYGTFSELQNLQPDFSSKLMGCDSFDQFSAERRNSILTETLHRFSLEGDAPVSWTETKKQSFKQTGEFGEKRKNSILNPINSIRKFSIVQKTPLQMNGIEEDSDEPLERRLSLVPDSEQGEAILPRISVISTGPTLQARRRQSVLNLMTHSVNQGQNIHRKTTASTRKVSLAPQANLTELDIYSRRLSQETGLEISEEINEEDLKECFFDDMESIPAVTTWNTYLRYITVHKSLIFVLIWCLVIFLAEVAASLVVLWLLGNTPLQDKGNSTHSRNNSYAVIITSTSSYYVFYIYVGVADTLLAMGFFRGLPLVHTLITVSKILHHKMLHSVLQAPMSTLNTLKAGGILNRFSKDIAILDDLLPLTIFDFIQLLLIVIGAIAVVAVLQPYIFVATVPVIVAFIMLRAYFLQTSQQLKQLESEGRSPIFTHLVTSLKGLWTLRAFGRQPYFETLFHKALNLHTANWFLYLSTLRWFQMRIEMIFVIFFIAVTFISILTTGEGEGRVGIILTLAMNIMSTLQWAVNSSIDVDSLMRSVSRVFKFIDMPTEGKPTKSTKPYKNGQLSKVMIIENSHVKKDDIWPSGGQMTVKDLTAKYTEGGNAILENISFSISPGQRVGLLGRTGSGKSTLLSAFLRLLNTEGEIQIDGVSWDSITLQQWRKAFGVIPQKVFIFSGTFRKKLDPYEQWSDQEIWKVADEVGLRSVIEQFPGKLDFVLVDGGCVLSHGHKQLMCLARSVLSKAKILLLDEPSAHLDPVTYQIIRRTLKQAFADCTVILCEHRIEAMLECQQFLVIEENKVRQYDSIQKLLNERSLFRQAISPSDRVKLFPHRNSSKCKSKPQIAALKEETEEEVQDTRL
Test: Co-potentiator activity in N1303K-CFTR expressing FRT cell model
Format: cell-based
Details: N1303K-CFTR expressing FRT cells

[
  {
    "MOL": "COc1ccc2[nH]c3c(c2c1)CCNC31CCN(Cc2ccc(F)cc2F)CC1",
    "co-potentiator activity (in words)": "active"
  },
  {
    "MOL": "COc1ccc2[nH]c3c(c2c1)CCNC31CCN(Cc2c(F)c(F)c(F)c(F)c2F)CC1",
    "co-potentiator activity (in words)": "active"
  }
]

---

Biological target: N1303K-CFTR (Homo sapiens, UniProt P13569, N1303K)
Assay: Co-potentiator activity in N1303K-CFTR expressing FRT cell model
Format: cell-based
Details: N1303K-CFTR expressing FRT cells
REPORTED_METRIC: co-potentiator activity (in words)

Below, 6 molecules whose answers are already recorded.
[
  {
    "MOLECULE": "COc1ccc2[nH]c3c(c2c1)CCNC31CCN(Cc2cc(F)cc(Cl)c2)CC1",
    "OBSERVED_MEASUREMENT": "decreased activity"
  },
  {
    "MOLECULE": "COc1ccc2[nH]c3c(c2c1)CCN[C@@]31CCN2Cc3ccccc3C[C@H]2C1 (racemic)",
    "OBSERVED_MEASUREMENT": "inactive"
  },
  {
    "MOLECULE": "COc1ccc2c3c([nH]c2c1)C1(CCN(Cc2ccc(F)cc2F)CC1)NCC3",
    "OBSERVED_MEASUREMENT": "decreased activity"
  },
  {
    "MOLECULE": "COc1ccc2[nH]c3c(c2c1)CCNC31CCN(Cc2ccccn2)CC1",
    "OBSERVED_MEASUREMENT": "active, but less potent"
  },
  {
    "MOLECULE": "COc1ccc2[nH]c3c(c2c1)CCNC31CCN(Cc2cccnc2)CC1",
    "OBSERVED_MEASUREMENT": "active, but less potent"
  },
  {
    "MOLECULE": "COc1ccc2[nH]c3c(c2c1)CCNC31CCCN(Cc2ccc(F)cc2F)CC1 (stereo not shown)",
    "OBSERVED_MEASUREMENT": "inactive"
  }
]

From here, focus on the item given below.
[ask] co-potentiator activity (in words) for COc1ccc2[nH]c3c(c2c1)CCNC31CCNCC1 ?
[reply] inactive
